- assayExplanation: Pharmacokinetics following intravenous administration in beagle dogs
- Type: in vivo
- reportedConditions: 1.4 mg/kg IV slow bolus

{"compound": "CC(=O)[O-].CCCCCOc1ccc(-c2ccc(-c3ccc(C(=O)NC4CC(O)C(OCC[N+](C)(C)C)NC(=O)C5C(O)C(C)CN5C(=O)C(C(C)O)NC(=O)C(C(O)C(O)c5ccc(O)cc5)NC(=O)C5CC(O)CN5C(=O)C(C(C)O)NC4=O)cc3)cc2)cc1 (stereo not drawn)", "unitsOfMeasure": "ng·h/mL", "AUC": 48700}
{"compound": "CCCCCOc1ccc(-c2ccc(-c3ccc(C(=O)NC4CC(O)C(NCCNCCO)NC(=O)C5C(O)C(C)CN5C(=O)C(C(C)O)NC(=O)C(C(O)C(O)c5ccc(O)cc5)NC(=O)C5CC(O)CN5C(=O)C(C(C)O)NC4=O)cc3)cc2)cc1 (stereo not drawn)", "unitsOfMeasure": "ng·h/mL", "AUC": 50800}
{"compound": "CCCCCOc1ccc(-c2ccc(-c3ccc(C(=O)NC4CC(O)C(OCCOCCOC)NC(=O)C5C(O)C(C)CN5C(=O)C(C(C)O)NC(=O)C(C(O)C(O)c5ccc(O)cc5)NC(=O)C5CC(O)CN5C(=O)C(C(C)O)NC4=O)cc3)cc2)cc1 (stereo not drawn)", "unitsOfMeasure": "ng·h/mL", "AUC": 96100}
{"compound": "CCCCCOc1ccc(-c2ccc(-c3ccc(C(=O)NC4CC(O)C(OCCOCCN)NC(=O)C5C(O)C(C)CN5C(=O)C(C(C)O)NC(=O)C(C(O)C(O)c5ccc(O)cc5)NC(=O)C5CC(O)CN5C(=O)C(C(C)O)NC4=O)cc3)cc2)cc1 (stereo not drawn)", "unitsOfMeasure": "ng·h/mL", "AUC": 67167}
{"compound": "CCCCCOc1ccc(-c2ccc(-c3ccc(C(=O)NC4CC(O)C(NCC[N+](C)(C)C)NC(=O)C5C(O)C(C)CN5C(=O)C(C(C)O)NC(=O)C(C(O)C(O)c5ccc(O)cc5)NC(=O)C5CC(O)CN5C(=O)C(C(C)O)NC4=O)cc3)cc2)cc1 (stereo not drawn)", "unitsOfMeasure": "ng·h/mL", "AUC": 46200}
{"compound": "CCCCCOc1ccc(-c2ccc(-c3ccc(C(=O)NC4CC(O)C(OCCOCCO)NC(=O)C5C(O)C(C)CN5C(=O)C(C(C)O)NC(=O)C(C(O)C(O)c5ccc(O)cc5)NC(=O)C5CC(O)CN5C(=O)C(C(C)O)NC4=O)cc3)cc2)cc1 (stereo not drawn)", "unitsOfMeasure": "ng·h/mL", "AUC": 113000}

---

- assayExplanation: Pharmacokinetics (oral bioavailability) following oral administration in beagle dogs
- Assay type: in vivo
- reportedConditions: oral about 7-10 mg/kg, formulation 11 (saline)
*1 amine or outer side, *2 acyl side, *3 side chain or, on linkers, in order; H or OH if unused. Where a SMILES comes first, the peptide text is derived from it. Bridges are numbered along the chain shown (N, C = ends). [ ]: non-standard residue; d: D form. The star is where a group is joined. pTerphenylCO(4''-OnC5H11) = CCCCCOc1ccc(-c2ccc(-c3ccc(C(=O)*)cc3)cc2)cc1; Orn(4R-OH,5R-OH) = O=C([C@H](C[C@@H](O)[C@@H](O)N[*:3])N[*:1])[*:2]; hTyr(3S-OH,4S-OH) = N[C@H](C(=O)O)[C@H](O)[C@@H](O)c1ccc(O)cc1; Pro(3S-OH,4S-Me) = C[C@H]1CN[C@H](C(=O)O)[C@H]1O; Hyp = O=C(O)[C@@H]1C[C@@H](O)CN1

{"molecule": "CCCCCOc1ccc(-c2ccc(-c3ccc(C(=O)NC4CC(O)C(NCCNCCO)NC(=O)C5C(O)C(C)CN5C(=O)C(C(C)O)NC(=O)C(C(O)C(O)c5ccc(O)cc5)NC(=O)C5CC(O)CN5C(=O)C(C(C)O)NC4=O)cc3)cc2)cc1 (stereo not drawn) [Compound 39]", "% BA in saline [%]": 5.15}
{"molecule": "CCCCCOc1ccc(-c2ccc(-c3ccc(C(=O)N[C@H]4C[C@@H](O)[C@@H](O)NC(=O)[C@@H]5[C@@H](O)[C@@H](C)CN5C(=O)[C@H]([C@@H](C)O)NC(=O)[C@H]([C@H](O)[C@@H](O)c5ccc(O)cc5)NC(=O)[C@@H]5C[C@@H](O)CN5C(=O)[C@H]([C@@H](C)O)NC4=O)cc3)cc2)cc1 [Anidulafungin, anidulafungin, reference compound] ({pTerphenylCO(4''-OnC5H11)}-[Orn(4R-OH,5R-OH)]T[Hyp][hTyr(3S-OH,4S-OH)]T[Pro(3S-OH,4S-Me)]; lactam 1-C)", "% BA in saline [%]": 7.80}
{"molecule": "CC(=O)[O-].CCCCCOc1ccc(-c2ccc(-c3ccc(C(=O)NC4CC(O)C(OCC[N+](C)(C)C)NC(=O)C5C(O)C(C)CN5C(=O)C(C(C)O)NC(=O)C(C(O)C(O)c5ccc(O)cc5)NC(=O)C5CC(O)CN5C(=O)C(C(C)O)NC4=O)cc3)cc2)cc1 (stereo not drawn) [Compound 22]", "% BA in saline [%]": 3.50}
